Data origin, for the record: paper doi:10.1101/2024.08.25.609621

Provide the reported PanDDA run, TFA/DMSO background map: 1-BDC of each item.
# Assay System: SARS-CoV-2 NSP3 macrodomain (Mac1), P43 crystal form (Severe acute respiratory syndrome coronavirus 2)
# Format: binding
# Test Context: soak concentration 10 mM; TFA/DMSO background map

Please report the recorded PanDDA run, TFA/DMSO background map: 1-BDC for CCC(Nc1ncnc2[nH]ccc12)C(C)O (stereo not shown) [AVI-3635] .
0.11

Please report the recorded PanDDA run, TFA/DMSO background map: 1-BDC for O=C(O)C(F)(F)F.OC[C@H]1CC2(CN1c1ncnc3[nH]ccc13)OCCO2 [AVI-3702] .
0.13

Please report the recorded PanDDA run, TFA/DMSO background map: 1-BDC for OCC1CC2(CCC2)CN1c1ncnc2[nH]ccc12 (stereo not shown) [AVI-3728] .
0.26

Please report the recorded PanDDA run, TFA/DMSO background map: 1-BDC for OCC(CC(F)(F)F)Nc1ncnc2[nH]ccc12 (stereo not shown) [AVI-3637] .
0.21

Please report the recorded PanDDA run, TFA/DMSO background map: 1-BDC for OCC(Nc1ncnc2[nH]ccc12)c1ccccc1 (stereo not shown) [AVI-3715] .
0.09

Please report the recorded PanDDA run, TFA/DMSO background map: 1-BDC for O=C(O)C(F)(F)F.OC[C@@H]1CC2(CC2)CN1c1ncnc2[nH]ccc12 [AVI-3710] .
0.23

Please report the recorded PanDDA run, TFA/DMSO background map: 1-BDC for OCC(COCc1ccccc1)Nc1ncnc2[nH]ccc12 (stereo not shown) [AVI-3709] .
0.16

Please report the recorded PanDDA run, TFA/DMSO background map: 1-BDC for OCC(O)C1CCCN1c1ncnc2[nH]ccc12 (stereo not shown) [AVI-3701] .
0.16

Please report the recorded PanDDA run, TFA/DMSO background map: 1-BDC for OCC(Cc1ccoc1)Nc1ncnc2[nH]ccc12 (stereo not shown) [AVI-3705] .
0.14

Please report the recorded PanDDA run, TFA/DMSO background map: 1-BDC for CC(C)(O)[C@@H]1CCCN1c1ncnc2[nH]ccc12 [AVI-1445] .
0.12

Please report the recorded PanDDA run, TFA/DMSO background map: 1-BDC for OCC1CC2(CCCCC2)CN1c1ncnc2[nH]ccc12 (stereo not shown) [AVI-3727] .
0.25

Please report the recorded PanDDA run, TFA/DMSO background map: 1-BDC for C[C@@H](O)[C@H](CO)Nc1ncnc2[nH]ccc12.O=C(O)C(F)(F)F [AVI-3730] .
0.12

Please report the recorded PanDDA run, TFA/DMSO background map: 1-BDC for OCC1CC2(CCOCC2)CN1c1ncnc2[nH]ccc12 (stereo not shown) [AVI-3707] .
0.15

Please report the recorded PanDDA run, TFA/DMSO background map: 1-BDC for OCC(Cc1cncs1)Nc1ncnc2[nH]ccc12 (stereo not shown) [AVI-3703] .
0.1

Please report the recorded PanDDA run, TFA/DMSO background map: 1-BDC for OCC(Cc1cccs1)Nc1ncnc2[nH]ccc12 (stereo not shown) [AVI-3711] .
0.16

Please report the recorded PanDDA run, TFA/DMSO background map: 1-BDC for O=C(O)C(F)(F)F.OC1([C@H]2CCCN2c2ncnc3[nH]ccc23)Cc2ccccc2C1 [AVI-3731] .
0.14
